assay: total protein half-life in vivo (active degradation + dilution); higher = more stable protein; details: wild type E. coli NCM3722; growth: N-lim chemostat; doubling time 12 h
reportedProperty: total protein half-life in vivo (h)
The answer is to be given in h; state only the numeric part.

Prompt: Given MEISFTRVALLAAALFFVGCDQKPQPAKTHATEVTVLEGKTMGTFWRASIPGIDAKRSAELKEKIQTQLDADDQLLSTYKKDSALMRFNDSQSLSPWPVSEAMADIVTTSLRIGAKTDGAMDITVGPLVNLWGFGPEQQPVQIPSQEQIDAMKAKTGLQHLTVINQSHQQYLQKDLPDLYVDLSTVGEGYAADHLARLMEQEGISRYLVSVGGALNSRGMNGEGLPWRVAIQKPTDKENAVQAVVDINGHGISTSGSYRNYYELDGKRLSHVIDPQTGRPIEHNLVSVTVIAPTALEADAWDTGLMVLGPEKAKEVVRREGLAVYMITKEGDSFKTWMSPQFKSFLVSEKN [P0AB85] , state its recorded total protein half-life in vivo.
Completion: 12.3

====

test: total protein half-life in vivo (active degradation + dilution); higher = more stable protein; settings: wild type E. coli NCM3722; growth: C-lim chemostat; doubling time 3 h
reportedProperty: total protein half-life in vivo (h)
The answer is to be given in h; state only the numeric part.

Prompt: Given MAGNTIGQLFRVTTFGESHGLALGCIVDGVPPGIPLTEADLQHDLDRRRPGTSRYTTQRREPDQVKILSGVFEGVTTGTSIGLLIENTDQRSQDYSAIKDVFRPGHADYTYEQKYGLRDYRGGGRSSARETAMRVAAGAIAKKYLAEKFGIEIRGCLTQMGDIPLDIKDWSQVEQNPFFCPDPDKIDALDELMRALKKEGDSIGAKVTVVASGVPAGLGEPVFDRLDADIAHALMSINAVKGVEIGDGFDVVALRGSQNRDEITKDGFQSNHAGGILGGISSGQQIIAHMALKPTSSITVPGRTINRFGEEVEMITKGRHDPCVGIRAVPIAEAMLAIVLMDHLLRQRAQNADVKTDIPRW , state its recorded total protein half-life in vivo.
Completion: 3.41

Prompt: Okay, and MDALELLINRRSASRLAEPAPTGEQLQNILRAGMRAPDHKSMQPWHFFVIEGEGRERFSAVLEQGAIAAGSDDKAIDKARNAPFRAPLIITVVAKCEENHKVPRWEQEMSAGCAVMAMQMAAVAQGFGGIWRSGALTESPVVREAFGCREQDKIVGFLYLGTPQLKASTSINVPDPTPFVTYF [P0ACY1] ?
Completion: 2.91

====

assay: total protein half-life in vivo (active degradation + dilution); higher = more stable protein; settings: wild type E. coli NCM3722; growth: N-lim chemostat; doubling time 6 h
reportedProperty: total protein half-life in vivo

Prompt: Given MIAELFTNNALNLVIIFGSCAALILMSFWFRRGNRKRKGFLFHAVQFLIYTIIISAVGSIINYVIENYKLKFITPGVIDFICTSLIAVILTIKLFLLINQFEKQQIKKGRDITSARIMSRIIKITIIVVLVLLYGEHFGMSLSGLLTFGGIGGLAVGMAGKDILSNFFSGIMLYFDRPFSIGDWIRSPDRNIEGTVAEIGWRITKITTFDNRPLYVPNSLFSSISVENPGRMTNRRITTTIGLRYEDAAKVGVIVEAVREMLKNHPAIDQRQTLLVYFNQFADSSLNIMVYCFTKTTVWAEWLAAQQDVYLKIIDIVQSHGADFAFPSQTLYMDNITPPEQGR [P0AEB5] , state its recorded total protein half-life in vivo.
Completion: 6.02 h

====

experiment: total protein half-life in vivo (active degradation + dilution); higher = more stable protein; settings: wild type E. coli NCM3722; growth: C-lim chemostat; doubling time 6 h
reportedProperty: total protein half-life in vivo
// unit must come after the numeric part

Prompt: Given MIYLRKANERGHANHGWLDSWHTFSFANYYDPNFMGFSALRVINDDVIEAGQGFGTHPHKDMEILTYVLEGTVEHQDSMGNKEQVPAGEFQIMSAGTGIRHSEYNPSSTERLHLYQIWIMPEENGITPRYEQRRFDAVQGKQLVLSPDARDGSLKVHQDMELYRWALLKDEQSVHQIAAERRVWIQVVKGNVTINGVKASTSDGLAIWDEQAISIHADSDSEVLLFDLPPV , state its recorded total protein half-life in vivo.
Completion: 5.31 h

Prompt: Okay, and MIHSSVKRWGNSPAVRIPATLMQALNLNIDDEVKIDLVDGKLIIEPVRKEPVFTLAELVNDITPENLHENIDWGEPKDKEVW [P0AE72] ?
Completion: 5.66 h

Prompt: Okay, and MSDTTELVDLAVIFPDLEIELKYACADNITGKAIYQQARCLLHKDAITALAKSISIAQLSGLQLVIYDAYRPQQAQAMLWQACPDPQYVVDVTVGSNHSRGTAIDLTLRDEHGNILDMGAGFDEMHERSHAYHPSVPPAAQRNRLLLNAIMTGGGFVGISSEWWHFELPQAASYPLLADQFSCFISPGTQHVS ?
Completion: 1.97 h

Prompt: Okay, and MTVRVAINGFGRIGRNVVRALYESGRRAEITVVAINELADAAGMAHLLKYDTSHGRFAWEVRQERDQLFVGDDAIRVLHERSLQSLPWRELGVDVVLDCTGVYGSREHGEAHIAAGAKKVLFSHPGSNDLDATVVYGVNQDQLRAEHRIVSNASCTTNCIIPVIKLLDDAYGIESGTVTTIHSAMHDQQVIDAYHPDLRRTRAASQSIIPVDTKLAAGITRFFPQFNDRFEAIAVRVPTINVTAIDLSVTVKKPVKANEVNLLLQKAAQGAFHGIVDYTELPLVSVDFNHDPHSAIVDGTQTRVSGAHLIKTLVWCDNEWGFANRMLDTTLAMATVAFR [P0A9B6] ?
Completion: 5.08 h

Prompt: Okay, and MTETIKVSESLELHAVAENHVKPLYQLICKNKTWLQQSLNWPQFVQSEEDTRKTVQGNVMLHQRGYAKMFMIFKEDELIGVISFNRIEPLNKTAEIGYWLDESHQGQGIISQALQALIHHYAQSGELRRFVIKCRVDNPQSNQVALRNGFILEGCLKQAEFLNDAYDDVNLYARIIDSQ ?
Completion: 5.79 h

Prompt: Okay, and MIRLSEQSPLGTGRHRKCYAHPEDAQRCIKIVYHRGDGGDKEIRRELKYYAHLGRRLKDWSGIPRYHGTVETDCGTGYVYDVIADFDGKPSITLTEFAEQCRYEEDIAQLRQLLKQLKRYLQDNRIVTMSLKPQNILCHRISESEVIPVVCDNIGESTLIPLATWSKWCCLRKQERLWKRFIAQPALAIALQKDLQPRESKTLALTSREA ?
Completion: 7.68 h

Prompt: Okay, and MNLQHHFLIAMPALQDPIFRRSVVYICEHNTNGAMGIIVNKPLENLKIEGILEKLKITPEPRDESIRLDKPVMLGGPLAEDRGFILHTPPSNFASSIRISDNTVMTTSRDVLETLGTDKQPSDVLVALGYASWEKGQLEQEILDNAWLTAPADLNILFKTPIADRWREAAKLIGVDILTMPGVAGHA [P0A8W5] ?
Completion: 5.38 h

Prompt: Okay, and MKQYLIAPSILSADFARLGEDTAKALAAGADVVHFDVMDNHYVPNLTIGPMVLKSLRNYGITAPIDVHLMVKPVDRIVPDFAAAGASIITFHPEASEHVDRTLQLIKENGCKAGLVFNPATPLSYLDYVMDKLDVILLMSVNPGFGGQSFIPQTLDKLREVRRRIDESGFDIRLEVDGGVKVNNIGEIAAAGADMFVAGSAIFDQPDYKKVIDEMRSELAKVSHE [P0AG07] ?
Completion: 5.43 h

Prompt: Okay, and MNTFSQVWVFSDTPSRLPELMNGAQALANQINTFVLNDADGAQAIQLGANHVWKLNGKPDDRMIEDYAGVMADTIRQHGADGLVLLPNTRRGKLLAAKLGYRLKAAVSNDASTVSVQDGKATVKHMVYGGLAIGEERIATPYAVLTISSGTFDAAQPDASRTGETHTVEWQAPAVAITRTATQARQSNSVDLDKARLVVSVGRGIGSKENIALAEQLCKAIGAELACSRPVAENEKWMEHERYVGISNLMLKPELYLAVGISGQIQHMVGANASQTIFAINKDKNAPIFQYADYGIVGDAVKILPALTAALAR ?
Completion: 5.9 h

Prompt: Okay, and MMNPLIIKLGGVLLDSEEALERLFSALVNYRESHQRPLVIVHGGGCVVDELMKGLNLPVKKKNGLRVTPADQIDIITGALAGTANKTLLAWAKKHQIAAVGLFLGDGDSVKVTQLDEELGHVGLAQPGSPKLINSLLENGYLPVVSSIGVTDEGQLMNVNADQAATALAATLGADLILLSDVSGILDGKGQRIAEMTAAKAEQLIEQGIITDGMIVKVNAALDAARTLGRPVDIASWRHAEQLPALFNGMPMGTRILA [P0A6C8] ?
Completion: 5.19 h

Prompt: Okay, and MQFSKMHGLGNDFMVVDAVTQNVFFSPELIRRLADRHLGVGFDQLLVVEPPYDPELDFHYRIFNADGSEVAQCGNGARCFARFVRLKGLTNKRDIRVSTANGRMVLTVTDDDLVRVNMGEPNFEPSAVPFRANKAEKTYIMRAAEQTILCGVVSMGNPHCVIQVDDVDTAAVETLGPVLESHERFPERANIGFMQVVKREHIRLRVYERGAGETQACGSGACAAVAVGIQQGLLAEEVRVELPGGRLDIAWKGPGHPLYMTGPAVHVYDGFIHL [P0A6K1] ?
Completion: 5.92 h

Prompt: Okay, and MNKVAQYYRELVASLSERLRNGERDIDALVEQARERVIKTGELTRTEVDELTRAVRRDLEEFAMSYEESLKEESDSVFMRVIKESLWQELADITDKTQLEWREVFQDLNHHGVYHSGEVVGLGNLVCEKCHFHLPIYTPEVLTLCPKCGHDQFQRRPFEP [P0AAT9] ?
Completion: 4.63 h
